# Tested on: NCI-H460 lung
# experimental-protocol: NCI tumour cell line growth inhibition, 48 h; in the data active = GI50 below about 0.43 µM; inactive = the rest
Valid outcomes are listed here; reply with one: 1 = active, 0 = inactive

Look up the recorded call for COc1ccc(C2CC(c3cccc(Nc4ccncc4)c3)=NN2c2cc(Cl)cc(Cl)c2)cc1 (configuration not stated) in this test. 0

Look up the recorded call for `Cc1ccc2c(n1)C(=O)c1[nH]c3ccccc3c1C2=O` in this test. 1

Look up the recorded call for COc1ccc2c(c1)C(C)Cc1c(Cl)ncnc1N2C (configuration not stated) in this test. 0

Look up the recorded call for `COc1cc(C(=O)c2cc(C)c3[nH]c4ccc(Cl)cc4c3c2C)cc(OC)c1OC` in this test. 1

Look up the recorded call for `CCN1CCN(c2ccc(Nc3cc(N(C)C(=O)Nc4c(Cl)c(OC)cc(OC)c4Cl)ncn3)cc2)CC1` in this test. 0

Look up the recorded call for C=C(C=O)C1CCC2(C(=O)O)CCC3(C)C(CCC4C5(C)CCC(O)C(C)(C)C5CCC43C)C12 (configuration not stated) in this test. 0

Look up the recorded call for CC(=O)OC1Oc2ccccc2-c2oc(=O)c(-c3cc(=O)oc4cc(O)ccc34)cc21 (configuration not stated) in this test. 0

----------
# Test system: MALME-3M melanoma
# experimental-protocol: NCI tumour cell line growth inhibition, 48 h
Would you mind telling me the reported TGI of each entry?

For the compound `O=C1OC(c2ccccc2)=N/C1=C/C=C/c1ccco1` , give its measured TGI value. > 100 µM

For the compound `S=C(c1c[nH]c2ccccc12)N1CCOCC1` , give its measured TGI value. > 100 µM

For the compound `Cc1nc(N)sc1-c1ccnc(Nc2ccc(N3CCOCC3)cc2)n1` , give its measured TGI value. > 65 µM

----------
# System: MDA-MB-435
# experimental-protocol: NCI tumour cell line growth inhibition, 48 h
quantity: TGI (µM)
A number alone suffices; assume µM.

For the compound CCOC(=O)/C=C/C(C(=O)/C=C/c1ccc(OC2CCCCO2)c(OC)c1)=C(O)\C=C\c1ccc(OC2CCCCO2)c(OC)c1 (configuration not stated) , give its measured TGI value. 13.6

For the compound `NC(=NCCCOc1ccc(Cl)cc1)Nc1ccc(C(F)(F)F)cc1` , give its measured TGI value. 3.45

For the compound `O=S(=O)(c1ccccc1)n1c2cc3cccnc3nc2c2cccnc21` , give its measured TGI value. 60

For the compound `O=S(=O)(Nc1cc(F)cc(Cl)c1)c1ccc(-c2cnc(C3CC3)o2)cc1` , give its measured TGI value. 1.22

For the compound `Oc1ccc2ccccc2c1/C=C/c1ccc2c(Br)cc(Br)c(O)c2n1` , give its measured TGI value. 36.2

For the compound `O=[N+]([O-])c1cc2oc(COc3ccccc3)nc2cc1Cl` , give its measured TGI value. 52.4

----------
# Test system: UACC-62 melanoma
# experimental-protocol: NCI tumour cell line growth inhibition, 48 h
quantity: TGI (µM)
A number alone suffices; assume µM.

For the molecule `N#CSC#Cc1ccc(C#CSC#N)cc1` , give its measured TGI value. 32.5

For the molecule `COC(=O)/C=C/c1cc(O)c2oc(-c3ccc(O)c(O)c3)c(C(=O)OC)c2c1` , give its measured TGI value. 5.96

For the molecule `NS(=O)(=O)c1nn2c(Br)c(-c3ccccc3)nc2s1` , give its measured TGI value. 15.4

For the molecule CC(=O)Nc1cc(C(=O)Nc2cc(C(=O)N3CC(CCl)c4c3cc(N)c3ccccc43)nn2C)nn1C (stereo not drawn) , give its measured TGI value. 0.0631

----------
# System: M14 melanoma
# experimental-protocol: NCI tumour cell line growth inhibition, 48 h; in the data active = GI50 below about 0.43 µM; inactive = the rest
Valid outcomes are listed here; reply with one: active, inactive

Look up the recorded call for `CC(C)=C[C@@H]1C[C@H](C)[C@H]2CC[C@H](C)C3=C2[C@](O)(OC3=O)[C@]1(C)O` in this test. inactive

Look up the recorded call for `COc1cc(C(=O)c2cc(C)c3[nH]c4ccc(Cl)cc4c3c2C)cc(OC)c1OC` in this test. active

Look up the recorded call for `O=C1NC(=Nc2ccccc2)S/C1=C\c1ccc2ncccc2c1` in this test. inactive

----------
Would you mind telling me the reported TGI of each entry?
# Tested on: PC-3 prostate
# experimental-protocol: NCI tumour cell line growth inhibition, 48 h
A number alone suffices; assume µM.

For the compound `CC(C)(C)c1cc(C(P(=O)(c2ccccc2)c2ccccc2)P(=O)(c2ccccc2)c2ccccc2)cc(C(C)(C)C)c1O` , give its measured TGI value. 7.67

For the compound C=CC(Br)(CBr)CCC(Cl)C(C)C (stereo not given) , give its measured TGI value. 14.1

For the compound `C/C(=C\CCc1ccoc1)CC/C=C(\C)CCCC1=CC(=O)OC1` , give its measured TGI value. 24.9

For the compound COc1ccc(CC2c3cc(Oc4cc(CC5c6cc(OC)c(OC)cc6CCN5C)ccc4O)c(OC)cc3CCN2C)cc1 (stereo not given) , give its measured TGI value. 11.4

For the compound `Cc1nc2ccccc2c(=O)n1NC(=O)c1ccc(CS)cc1` , give its measured TGI value. 19.2

For the compound `CNCCCn1cc(C2=C(c3cn(C)c4ccccc34)C(=O)NC2=O)c2ccccc21` , give its measured TGI value. 14.6

For the compound `C=C(F)C(=O)N1CCN(c2nc(OC[C@@H]3CCCN3C)nc3c2CCN(c2cccc4cccc(Cl)c24)C3)C[C@@H]1CC#N` , give its measured TGI value. 2.44

For the compound C=C1CC(c2ccc(OCCCN3C(=O)c4ccccc4C3=O)c(OC)c2)OC1=O (stereo not given) , give its measured TGI value. 25.7

----------
# System: NCI-H226 lung
# experimental-protocol: NCI tumour cell line growth inhibition, 48 h
Would you mind telling me the reported TGI of each entry?
A number alone suffices; assume µM.

For the molecule `CN(C)Cc1cc(C(=O)/C=C/c2ccc(Cl)cc2)cc(CN(C)C)c1O` , give its measured TGI value. 49.8

For the molecule `S=C(NCc1ccccc1)c1nc[nH]c1C(=S)NCc1ccccc1` , give its measured TGI value. 8.1

For the molecule `CCOC(=O)C1(Cc2ccc3c(c2)CCC3)Cc2cc3c(cc2C1)CCC3` , give its measured TGI value. 81.9

For the molecule `CCc1nc(N)nc(N)c1-c1ccc2nn(-c3ccccc3)[n+]([O-])c2c1` , give its measured TGI value. 48.7

For the molecule `O=C(Nc1nc2ncn(CCI)c2c(=O)[nH]1)c1ccccc1` , give its measured TGI value. 77.4

For the molecule CC(SC(C)C(=O)N/N=C/c1cccc(Cl)c1)C(=O)N/N=C\c1cccc(Cl)c1 (stereo unspecified) , give its measured TGI value. 43.1

For the molecule `Oc1ccc2ccccc2c1/C=C/c1ccc2c(Br)cc(Br)c(O)c2n1` , give its measured TGI value. 20.3

----------
Would you mind telling me the reported TGI of each entry?
# Tested on: SK-MEL-5 melanoma
# experimental-protocol: NCI tumour cell line growth inhibition, 48 h
A number alone suffices; assume µM.

Fetch value of TGI on SK-MEL-5 melanoma for `CCC1(CC)SCc2nc3ccccc3n21` . 36.5

Fetch value of TGI on SK-MEL-5 melanoma for CC(=O)OC1Oc2ccccc2-c2oc(=O)c(-c3cc(=O)oc4cc(O)ccc34)cc21 (stereo not given) . 26.5

Fetch value of TGI on SK-MEL-5 melanoma for `CCN1CCN(c2ccc(Nc3cc(N(C)C(=O)Nc4c(Cl)c(OC)cc(OC)c4Cl)ncn3)cc2)CC1` . 8.47

Fetch value of TGI on SK-MEL-5 melanoma for `C/C1=C\CC[C@@]2(C)O[C@@H]2[C@H]2OC(=O)[C@@H](CN(C)C)[C@@H]2CC1` . 29.7

Fetch value of TGI on SK-MEL-5 melanoma for `C=C(C)[C@@]12OC3(/C=C/C=C/CCCCC)O[C@@H]1[C@@H]1[C@@H]4O[C@]4(CO)[C@@H](O)[C@]4(O)C(=O)C(C)=C[C@H]4[C@@]1(O3)[C@H](C)[C@H]2OC(=O)c1ccccc1` . 1.86

----------
Would you mind telling me the reported GI50 of each entry?
# Test system: HL-60(TB) leukemia
# experimental-protocol: NCI tumour cell line growth inhibition, 48 h

For the compound `C#Cc1cccc(Nc2ncnc3cc(OC)c(OCCCCCCC(=O)NO)cc23)c1` , give its measured GI50 value. 0.334 µM

For the compound CCOC(=O)/C=C/C(C(=O)/C=C/c1ccc(OC2CCCCO2)c(OC)c1)=C(O)\C=C\c1ccc(OC2CCCCO2)c(OC)c1 (stereo not given) , give its measured GI50 value. 3.01 µM

For the compound CC(=O)OC1Oc2ccccc2-c2oc(=O)c(-c3cc(=O)oc4cc(O)ccc34)cc21 (stereo not given) , give its measured GI50 value. 21.8 µM

For the compound `C/C(=C\CCc1ccoc1)CC/C=C(\C)CCCC1=CC(=O)OC1` , give its measured GI50 value. 6.3 µM

For the compound `Cc1nc(N)sc1-c1ccnc(Nc2ccc(N3CCOCC3)cc2)n1` , give its measured GI50 value. 1.99 µM

FYI, the data here is from PubChem BioAssay (NCI).
